Attribution: patent US20160145322A1

MEASUREMENT_TARGET: T1, Sym-1789 (RSV-G type B central region peptide 145-184) (Respiratory syncytial virus type B, N-terminal biotin)
T1 construct: Synthetic peptide, C-terminally truncated against Sym-1788
T1 peptide: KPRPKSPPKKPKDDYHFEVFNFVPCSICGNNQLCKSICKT
PROCEDURE_TEXT: ELISA, biotinylated peptide on avidin plate
METRIC: binding result

>  <BINDER>
CB047.1 (antibody, V domains shown, Tested as human IgG from the pCP9-kappa vector) VH: EVQLVESGGGLVQPGGSLRLSCAASGFSFSNYAMSWVRQAPGKGLEWVSDISGSGNSTNFADSVKGRFTISRDNSKNTLYLQMSSLRAEDTAVYYCAKFRVPTYCVNGICYQGLPGFDIWGQGTMVTVSS VL: DIQMTQSPSSLSASVGDRVTITCQASQDISDYLNWYQQKPGKAPKLLIYDASNLETGVPSRFSASGSGTDFTFTISSLQPEDIATYYCQHYHNLPPLFGGGTKVEIK

>  <binding result>
binds

$$$$
>  <BINDER>
CB072.1L (antibody, V domains shown, Tested as human IgG from the pCP9-lambda vector; also called CB072.IL) VH: QLQLQESGPGLVKPSETLSLTCTVSGGSISSNIHYWAWIRQTPGKGLEWIGYMFYGGVAFYNPSLKSRVAISVDTSKNQFSLRLTSASAADTAVYYCARVLVASTNWFDPWGQGTLVTVSS VL: SYVLTQPPSVSVAPGGTARITCGGDNIGTKGVHWYQQKPGQAPVLVMYYNSDRPTGVPERFSGSNSGNTATLTISRLEAGDEADYYCHVWDSSGSDHVEVFGGGTKLTVL

>  <binding result>
binds

$$$$
>  <BINDER>
CB073.1L (antibody, V domains shown, Tested as human IgG from the pCP9-lambda vector) VH: QVQLVESGGGVVQPGRSLRLSCAASGFTFYNYAVHWVRQAPGKGLEWVAVISHDGVNKDYADSVKGRITLSRDNSKNTVYLQLNSLRPEDTAVYYCARDRSYYFGGSVFHLYFDYWGQGTLVTVSS VL: QSVLTQPPSVSGAPGQRVIISCTGSSSNIGAGHDVHWYQQLPGTAPRLLIYANTNRPSGVPDRFSASKSGNSASLVITGLQAEDEADYFCQSHDSSLSGVLFGGGTKLTVL

>  <binding result>
binds

$$$$
>  <BINDER>
CB079.1 (antibody, V domains shown, Tested as human IgG from the pCP9-kappa vector) VH: EVQLVESGGDLVQPGGSLRLSCSASGFVFTSYSFHWVRQAPGKGLEYVSSVSADGGSTYYADSVRGRFLISRDNSKNTLSLQMSSLRPDDTALYYCVPQPSLLWFGDLRSWGQGTLVTVSS VL: DIVMTQSPLSLPVTPGEPASISCRSSQSLLHSNGYNYLDWYLQKPGQSPQLLIYLSSNRASGVPDRFSGSGSGTDFTLKISRVEAEDIGIYYCMQSLQTLTFGQGTRLEIK

>  <binding result>
binds

$$$$
>  <BINDER>
CB076.2L (antibody, V domains shown, Tested as human IgG from the pCP9-lambda vector) VH: QVQLVQSGAEVKKPGSSVKVSCKTSGDTFSNYVVSWVRQAPGQGLEWMGGIIPMFGTTNYAQRFQGRVTISADESTSTAYMEMSSLKSEDTAVYYCARDRYYEVRAGGKVLNTYYYMDVWGKGTTVTVSS VL: SSELTQDPAVSVALGHTVRITCQGDSLRSYYTNWYQQKPGQAPVLVIFGEDNRPSGIPDRFSGSSSGDTASLTITGTQAEDEADYYCNSRDSSGNLWVFGGGTKLTVL

>  <binding result>
binds

$$$$

# evaluate next
Please indicate binding result recorded for CB047.2 (antibody, V domains shown, Tested as human IgG from the pCP9-kappa vector) VH: EVQLVESGGGLVQPGGSLRLSCAASGFNFSNYAMSWVRQAPGKGLEWVSDISSSGKTTNSADSVKGRFTISRDNSKNTLFLQMSSLRADDTAVYYCAKFRVPTYCVNGICYQGLPGFDIWGQGTMVTVSS VL: DIQMTQSPSSLSASVGDRVTITCQASQDISDYLNWYQQKPGKAPKLLIYDASNLETGVPSRFSASGSGTDFTFTISSLQPEDFATYYCQHYHNLPPLFGGGTKVEIK
binds
